# Measured target: KRAS G13C (Homo sapiens (Human), UniProt P01116+P62937, G13C)
# Sequence (P01116 other isoform, or with tags, fused parts or gaps G13C): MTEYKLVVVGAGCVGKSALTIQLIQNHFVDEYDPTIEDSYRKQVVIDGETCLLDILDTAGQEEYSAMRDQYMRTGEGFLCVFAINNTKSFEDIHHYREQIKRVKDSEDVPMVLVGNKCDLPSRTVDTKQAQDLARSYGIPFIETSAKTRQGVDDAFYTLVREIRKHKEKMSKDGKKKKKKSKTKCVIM
# Sequence (P62937 whole entry): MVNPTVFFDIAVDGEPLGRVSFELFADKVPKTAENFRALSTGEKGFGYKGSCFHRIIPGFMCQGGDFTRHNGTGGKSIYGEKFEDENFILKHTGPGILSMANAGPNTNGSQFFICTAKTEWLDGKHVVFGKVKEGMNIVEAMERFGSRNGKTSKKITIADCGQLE
# Procedure summary: Ras-Raf disruption/FRET/MOA assay, KRAS G13C
# Format: biochemical
Measured metric: IC50

Consider the following illustrative entries.
[[record]]
compound = "CCn1c(-c2cccnc2[C@H](C)OC)c2c3cc(ccc31)-c1cc(O)cc(c1)C[C@H](NC(=O)[C@@H](C(C)C)N(C)C(=O)[C@@]1(C)CCCN1C(=O)[C@H]1CN1)C(=O)N1CCC[C@H](N1)C(=O)OCC(C)(C)C2 [Example 240]"
measured_metric = "IC50"
meas_value = "1 to 10 µM"

[[record]]
compound = "CCn1c(-c2cccnc2[C@H](C)OC)c2c3cc(ccc31)-c1cc(O)cc(c1)C[C@H](NC(=O)[C@H](C(C)C)N(C)C(=O)[C@@H]1CO[C@H](C)CN1C(=O)[C@@H]1CN1)C(=O)N1CCC[C@H](N1)C(=O)OCC(C)(C)C2 [Example 249]"
measured_metric = "IC50"
meas_value = "0.01 to 0.1 µM"

[[record]]
compound = "CCn1c(-c2cnccc2COC)c2c3cc(ccc31)-c1cc(O)cc(c1)C[C@H](NC(=O)[C@H](C(C)C)N(C)C(=O)CN(C)C(=O)[C@H]1N[C@H]1c1ccc(OC)cc1)C(=O)N1CCC[C@H](N1)C(=O)OCC(C)(C)C2 [Example 93]"
measured_metric = "IC50"
meas_value = "0.01 to 0.1 µM"

[[record]]
compound = "CCn1c(-c2cnccc2COC)c2c3cc(ccc31)-c1cc(O)cc(c1)C[C@H](NC(=O)[C@H](C(C)C)N(C)C(=O)CN(C)C(=O)[C@H]1N[C@@H]1c1ccc(OC)cc1)C(=O)N1CCC[C@H](N1)C(=O)OCC(C)(C)C2 [Example 97]"
measured_metric = "IC50"
meas_value = "0.01 to 0.1 µM"

[[record]]
compound = "CCn1c(-c2cnccc2COC)c2c3cc(ccc31)-c1cc(O)cc(c1)C[C@H](NC(=O)[C@H](C(C)C)N(C)C(=O)CN(C)C(=O)[C@@H]1N[C@@H]1C1CC1)C(=O)N1CCC[C@H](N1)C(=O)OCC(C)(C)C2 [Example 103]"
measured_metric = "IC50"
meas_value = "0.01 to 0.1 µM"

[[record]]
compound = "CCn1c(-c2cccnc2[C@H](C)OC)c2c3cc(ccc31)-c1cc(O)cc(c1)C[C@H](NC(=O)[C@H](C(C)C)N(C)C(=O)[C@]1(C)CCCN1C(=O)[C@H]1CN1)C(=O)N1CCC[C@H](N1)C(=O)OCC(C)(C)C2 [Example 243]"
measured_metric = "IC50"
meas_value = "0.1 to 1 µM"

[[record]]
compound = "CCn1c(-c2cnccc2COC)c2c3cc(ccc31)-c1cc(O)cc(c1)C[C@H](NC(=O)[C@H](C(C)C)N(C)C(=O)CN(C)C(=O)[C@@H]1N[C@H]1c1ccccc1)C(=O)N1CCC[C@H](N1)C(=O)OCC(C)(C)C2 [Example 11]"
measured_metric = "IC50"
meas_value = "0.01 to 0.1 µM"

[[record]]
compound = "CCn1c(-c2cnccc2COC)c2c3cc(ccc31)-c1cc(O)cc(c1)C[C@H](NC(=O)[C@H](C(C)C)N(C)C(=O)CN(C)C(=O)[C@H]1N[C@@H]1c1ccccc1)C(=O)N1CCC[C@H](N1)C(=O)OCC(C)(C)C2 [Example 12]"
measured_metric = "IC50"
meas_value = "0.01 to 0.1 µM"

[[record]]
compound = "CCn1c(-c2cccnc2[C@H](C)OC)c2c3cc(ccc31)-c1cc(O)cc(c1)C[C@H](NC(=O)[C@H](C(C)C)N(C)C(=O)[C@@]1(C)CCCN1C(=O)[C@H]1CN1)C(=O)N1CCC[C@H](N1)C(=O)OCC(C)(C)C2 [Example 239]"
measured_metric = "IC50"
meas_value = "0.01 to 0.1 µM"

[[record]]
compound = "CCn1c(-c2cccnc2[C@H](C)OC)c2c3cc(ccc31)-c1cc(O)cc(c1)C[C@H](NC(=O)[C@H](C(C)C)N(C)C(=O)[C@]13C[C@H]1CCN3C(=O)[C@H]1CN1)C(=O)N1CCC[C@H](N1)C(=O)OCC(C)(C)C2 [Example 244]"
measured_metric = "IC50"
meas_value = "0.1 to 1 µM"


Query string: Specify reported IC50 for the compound shown: CCn1c(-c2cccnc2COC)c2c3cc(ccc31)-c1cc(O)cc(c1)C[C@H](NC(=O)[C@H](C(C)C)N(C)C(=O)CCNC(=O)NCCCl)C(=O)N1CCC[C@H](N1)C(=O)OCC(C)(C)C2 [Example 25]
Result string: 1 to 10 µM

Query string: Specify reported IC50 for the compound shown: CCn1c(-c2cnccc2COC)c2c3cc(ccc31)-c1cc(O)cc(c1)C[C@H](NC(=O)[C@H](C(C)C)N(C)C(=O)CN(C)C(=O)[C@@H]1N[C@@H]1C)C(=O)N1CCC[C@H](N1)C(=O)OCC(C)(C)C2 [Example 105]
Result string: 0.01 to 0.1 µM

Query string: Specify reported IC50 for the compound shown: CCn1c(-c2cccnc2[C@H](C)OC)c2c3cc(ccc31)-c1cc(O)cc(c1)C[C@H](NC(=O)[C@@H](C(C)C)N(C)C(=O)[C@@]1(C)CCCN1C(=O)[C@@H]1CN1)C(=O)N1CCC[C@H](N1)C(=O)OCC(C)(C)C2 [Example 242]
Result string: 1 to 10 µM

Query string: Specify reported IC50 for the compound shown: CCn1c(-c2cnccc2COC)c2c3cc(ccc31)-c1cc(O)cc(c1)C[C@H](NC(=O)[C@H](C(C)C)N(C)C(=O)CN(C)C(=O)[C@H]1N[C@H]1C(=O)OC)C(=O)N1CCC[C@H](N1)C(=O)OCC(C)(C)C2 [Example 51]
Result string: 0.01 to 0.1 µM

* * *

# Measured target: KRAS G12D (Homo sapiens (Human), UniProt P01116+P62937, G12D)
# Sequence (P01116 other isoform, or with tags, fused parts or gaps G12D): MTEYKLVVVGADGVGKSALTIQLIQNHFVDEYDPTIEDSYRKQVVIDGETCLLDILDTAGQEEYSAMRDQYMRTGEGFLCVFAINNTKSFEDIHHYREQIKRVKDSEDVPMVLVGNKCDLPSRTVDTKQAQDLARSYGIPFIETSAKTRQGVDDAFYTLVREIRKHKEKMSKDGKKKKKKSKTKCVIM
# Sequence (P62937 whole entry): as the sequence (P62937 whole entry) above
# Procedure summary: Ras-Raf disruption/FRET/MOA assay (BRAF RBD, Cyclophilin A)
# Assay type: biochemical
# Reported conditions: read-out: KRAS G12D FRET IC50
# Protocol: Compound is present in plate wells as a 10-point 3-fold dilution series starting at a final concentration of 30 μM. After incubation at 25° C. for 3 hours, a mixture of Anti-His Eu—W1024 and anti-GST allophycocyanin is then added to assay sample wells at final concentrations of 10 nM and 50 nM, respectively, and the reaction incubated for an additional 1.5 hours. […]
Measured metric: IC50

Consider the following illustrative entries.
[[record]]
cpd_smiles = "CCn1c(-c2cccnc2[C@H](C)OC)c2c3cc(ccc31)-c1cccc(c1)C[C@H](NC(=O)[C@H](C(C)C)N(C)C(=O)[C@@H]1CCN(C3COC3)C1)C(=O)N1CCC[C@H](N1)C(=O)OCC(C)(C)C2"
measured_target = "KRAS G12D (Homo sapiens (Human), UniProt P01116+P62937, G12D)"
measured_metric = "IC50"
meas_value = "> 10 µM"

[[record]]
cpd_smiles = "CCn1c(-c2cccnc2[C@H](C)OC)c2c3cc(ccc31)-c1csc(n1)C[C@H](NC(=O)C1(F)CCC1)C(=O)N1CCC[C@H](N1)C(=O)OCC(C)(C)C2"
measured_target = "KRAS G12D (Homo sapiens (Human), UniProt P01116+P62937, G12D)"
measured_metric = "IC50"
meas_value = "1 to 10 µM"


Continue with the molecule presented below.
Query string: Specify reported IC50 for the molecule shown: CCn1c(-c2cccnc2[C@H](C)OC)c2c3cc(ccc31)-c1cc(O)cc(c1)C[C@H](NC(=O)C(C)=C(C)C)C(=O)N1CCC[C@H](N1)C(=O)OCC(C)(C)C2
Result string: > 10 µM

* * *

# Measured target: KRAS G13D binding to BRAF RBD (Homo sapiens (Human), UniProt P01116+P62937, G13D)
# Sequence (P01116 other isoform, or with tags, fused parts or gaps G13D, one chain of several): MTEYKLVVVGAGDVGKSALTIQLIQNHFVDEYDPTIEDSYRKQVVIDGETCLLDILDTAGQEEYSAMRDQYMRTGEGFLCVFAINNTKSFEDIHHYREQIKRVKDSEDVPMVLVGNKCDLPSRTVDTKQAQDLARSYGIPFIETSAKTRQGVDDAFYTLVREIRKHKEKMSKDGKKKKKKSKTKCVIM
# Procedure summary: Ras-Raf disruption/FRET/MOA assay, KRAS G13D
Measured metric: IC50

[[record]]
compound = "CC[C@@H](COC1CN(C(=O)C#CC(C)(C)N(C)C)C1)C(=O)N[C@H]1Cc2nc(cs2)-c2ccc3c(c2)c(c(-c2cccnc2[C@H](C)OC)n3CC)CC(C)(C)COC(=O)[C@@H]2CCCN(N2)C1=O (atropisomer, axis not shown) [Compound A705]"
measured_metric = "IC50"
meas_value = "> 10 µM"


Continue with the compound presented below.
Query string: Specify reported IC50 for the compound shown: C=CC(=O)N1CC[C@H](C(=O)N(C)[C@H](C(=O)N[C@H]2Cc3cccc(c3)-c3ccc4c(c3)c(c(-c3cccnc3[C@H](C)OC)n4CC)CC(C)(C)COC(=O)[C@@H]3CCCN(N3)C2=O)C(C)C)C1 [Compound A114]
Result string: > 10 µM

* * *

# Measured target: NRAS Q61R (Homo sapiens (Human), UniProt P01111+P62937, Q61R)
# Sequence (P01111 whole entry Q61R): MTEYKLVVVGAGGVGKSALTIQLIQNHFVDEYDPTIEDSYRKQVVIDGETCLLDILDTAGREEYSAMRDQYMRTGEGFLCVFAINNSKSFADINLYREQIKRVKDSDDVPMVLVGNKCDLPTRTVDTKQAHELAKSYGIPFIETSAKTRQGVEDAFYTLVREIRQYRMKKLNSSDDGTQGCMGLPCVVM
# Sequence (P62937 whole entry): as the sequence (P62937 whole entry) above
# Procedure summary: Ras-Raf disruption/FRET/MOA assay (BRAF RBD, Cyclophilin A)
# Assay type: biochemical
Each entry below lists one item and its recorded IC50 value.

Consider the following illustrative entries.
[[record]]
cpd_smiles = "CCn1c(-c2cccnc2[C@H](C)OC)c2c3cc(ccc31)-c1csc(n1)C[C@H](NC(=O)[C@H](C(C)C)N(C)C(=O)N(C)[C@H]1CCN(C)C1)C(=O)N1CCC[C@H](N1)C(=O)OCC(C)(C)C2"
meas_value = "100 to 1000 nM"

[[record]]
cpd_smiles = "CCn1c(-c2cccnc2[C@H](C)OC)c2c3cc(ccc31)-c1cc(c3cn[nH]c3c1)C[C@H](NC(=O)[C@H](C(C)C)N(C)C(C)=O)C(=O)N1CCC[C@H](N1)C(=O)OCC(C)(C)C2"
meas_value = "1000 to 10000 nM"


Continue with the compound presented below.
Query string: Specify reported IC50 for the compound shown: CCn1c(-c2cccnc2[C@H](C)OC)c2c3cc(ccc31)-c1csc(n1)C[C@H](NC(=O)[C@H](C(C)C)N(C)C(=O)N1CC[C@H](O)C1)C(=O)N1CCC[C@H](N1)C(=O)OCC(C)(C)C2
Result string: 100 to 1000 nM
